- Test system: Mus musculus
- Assay name: Anticonvulsant activity in ip dosed Swiss mouse assessed as protection against maximal electroshock-induced seizures at 0.25 hrs
- Type: functional
Form field: ED50 (one value per entry).
# unit: mg/kg | format: bare number

Use the examples below as a reference point.
CC1CC(=O)N(C(C)C(=O)N2CCN(c3cccc(Cl)c3)CC2)C1=O (stereo not given) ... 89.7
CCC(C(=O)N1CCN(c2cccc(C(F)(F)F)c2)CC1)N1C(=O)CC(C)C1=O (stereo not given) ... 75.1

Asked: Given the entry CC1CC(=O)N(C(C)C(=O)N2CCN(c3cccc(C(F)(F)F)c3)CC2)C1=O (stereo not given) , report its measured ED50.
Given back: 81.7

Asked: Recorded ED50 of CC(C(=O)N1CCN(c2cccc(Cl)c2)CC1)N1C(=O)CC(C)(C)C1=O (stereo not given) , please.
Given back: 120
